Taken from patent US8022055B2.

Each entry below lists one item and its recorded IC50 value.
tested on: PA1; assay: three day MTT cytotoxicity assay, PA1; format: cell-based, human; conditions: Homo sapiens, PA-1, PA1, 72 hours, read-out: IC50 for cell lines PA1
Measurement name: IC50 (µg/mL)

- C=C(C)[C@@H]1CC[C@]2(C(=O)O)CC[C@]3(C)[C@H](CC[C@@H]4[C@@]5(C)CC[C@H](O)C(C)(C)[C@@H]5CC[C@]43C)[C@@H]12 [Betulinic Acid (II), 33-hydroxy-lup-20(29)-en-28-oic acid, reference compound]: 11.5
- CC(C)[C@@H]1CC[C@]2(C(=O)O)CC[C@]3(C)C(CCC4[C@@]5(C)CC/C(=N/Oc6ccc([N+](=O)[O-])cc6)C(C)(C)C5CC[C@]43C)C12 (stereo partly shown): 3.63
